- Test system: IGROV1 ovarian
- experiment: NCI tumour cell line growth inhibition, 48 h; in the data active = GI50 below about 0.43 µM; inactive = the rest
Give your call using only these classes: class 1 for active, class 0 for inactive

## Input For O=C(c1ccc2ccccc2c1)c1c(C(F)(F)F)n([O-])c2cc(Cl)c(Cl)cc2[n+]1=O , what call appears in the results of this test?
## Output class 0

## Input For Clc1ccccc1C(c1ccccc1)(c1ccccc1)n1ccnc1 , what call appears in the results of this test?
## Output class 0

## Input For N#CC(=C1SCS1)[N+](=O)[O-] , what call appears in the results of this test?
## Output class 0

## Input For CNC(=O)c1ccccc1CC1(O)c2ccccc2Oc2ccccc21 , what call appears in the results of this test?
## Output class 0

## Input For O=C(Nc1cccc(-n2ccc3c(NC(=O)c4ccccc4)nccc32)c1)c1cccc(C(F)(F)F)c1 , what call appears in the results of this test?
## Output class 1

## Input For C=C1CCC2C(/C=C(\C)CCC1O)OC(=O)C2C (configuration not stated) , what call appears in the results of this test?
## Output class 0

## Input For COc1cc2c3c(cccc3c1)C(=O)N(CCN1CCCC1)C2=O , what call appears in the results of this test?
## Output class 0

## Input For CC(C)(C)OC(=O)n1cc(CNC(=S)Nc2ccccc2)c2ccccc21 , what call appears in the results of this test?
## Output class 0

## Input For N#Cc1c(NC(=O)c2cccc(C(F)(F)F)c2)sc2c1CCC(=O)C2 , what call appears in the results of this test?
## Output class 0

## Input For Brc1cccc(-c2cc(-c3ccc4c(c3)OCCO4)[nH]n2)c1 , what call appears in the results of this test?
## Output class 0

## Input For Nc1n[nH]c2ccc([C@@H]3Nc4ccc5[nH]ncc5c4[C@H]4[C@H]5CCC(C5)[C@H]43)cc12 , what call appears in the results of this test?
## Output class 0

## Input For COc1cc(/C=C\[N+](=O)[O-])ccc1O , what call appears in the results of this test?
## Output class 0

---

- System: SF-539 CNS
- experiment: NCI tumour cell line growth inhibition, 48 h
readout-kind: TGI (µM)
The response must be a number in µM with no trailing unit.

## Input For CC(C)(C)OC(=O)n1cc(CNC(=S)Nc2ccccc2)c2ccccc21 , what is its reported TGI?
## Output 25.4

## Input For Cc1cn(C2C=CC(COP(=O)(OCC3=CC(=O)c4ccccc4C3=O)N(C)CCCCCl)O2)c(=O)[nH]c1=O (stereo unspecified) , what is its reported TGI?
## Output 25.8

## Input For COc1ccc(-c2nn(-c3cccc(Cl)c3)cc2C2CC(c3ccccc3)=NN2C(C)=O)cc1 (stereo unspecified) , what is its reported TGI?
## Output 58.7

---

- Test system: SR leukemia
- experiment: NCI tumour cell line growth inhibition, 48 h
readout-kind: TGI

## Input Lookup: TGI / SR leukemia / CCn1c(-c2nonc2N)nc2c(C#CCN)ncc(OCCCN)c21
## Output > 25 µM

## Input Lookup: TGI / SR leukemia / O=C(Nc1nc2ccccc2s1)OCC(F)(F)F
## Output > 100 µM

## Input Lookup: TGI / SR leukemia / Cc1cc(=O)cc2sc3c(C)cccc3nc1-2
## Output > 100 µM

## Input Lookup: TGI / SR leukemia / COc1cc2ncn(-c3cc(OCc4ccccc4Cl)c(C(N)=O)s3)c2cc1OC
## Output > 25 µM

## Input Lookup: TGI / SR leukemia / N#C/C(=C\NC(=S)Nc1ccc(S(=O)(=O)Nc2ccccn2)cc1)C(N)=O
## Output > 100 µM

---

- System: MOLT-4 leukemia
- experiment: NCI tumour cell line growth inhibition, 48 h
readout-kind: TGI

## Input For O=[Se]([O-])c1ccccc1.O=[Se]([O-])c1ccccc1.[OH3+].[OH3+].[Pt+2] , what is its reported TGI?
## Output > 42.4 µM

## Input For COc1c(C2CC(=O)Nc3c2cnn3Cc2ccco2)cc2c(c1OC)OCO2 (stereo not drawn) , what is its reported TGI?
## Output > 100 µM

## Input For Cc1ccc2c(c1)nc(N)n[n+]2[O-] , what is its reported TGI?
## Output > 100 µM

---

- Tested on: OVCAR-3 ovarian
- experiment: NCI tumour cell line growth inhibition, 48 h
readout-kind: TGI

## Input Lookup: TGI / OVCAR-3 ovarian / Cn1cc(NC(=O)c2cc(NC(=O)CCCCCCCCCCC(=O)Nc3cc(C(=O)Nc4cc(C(=O)NCCC(=N)N)n(C)c4)n(C)c3)cn2C)cc1C(=O)NCCC(=N)N
## Output > 100 µM

## Input Lookup: TGI / OVCAR-3 ovarian / Cc1cc2c(c(C(=O)NCCC(=O)O)c1)Oc1c(cc(C)cc1C(=O)NCCC(=O)O)S2
## Output > 100 µM

## Input Lookup: TGI / OVCAR-3 ovarian / O=C1NC(c2ccc(O)cc2)C2CCC1C2 (stereo not drawn)
## Output > 100 µM

---

- Test system: NCI/ADR-RES ovarian
- experiment: NCI tumour cell line growth inhibition, 48 h
readout-kind: TGI

## Input Lookup: TGI / NCI/ADR-RES ovarian / O=C(O)c1ccc(NC(c2ccccc2)c2ccc3cccnc3c2O)cc1 (centres undefined)
## Output > 45.3 µM

## Input Lookup: TGI / NCI/ADR-RES ovarian / c1ccc([P+](CCNCCNCC[P+](c2ccccc2)(c2ccccc2)c2ccccc2)(c2ccccc2)c2ccccc2)cc1
## Output > 100 µM

## Input Lookup: TGI / NCI/ADR-RES ovarian / CC(=O)C(CN1CCCCC1)C(c1ccccc1)c1c(O)c2ccccc2oc1=O (centres undefined)
## Output > 100 µM

## Input Lookup: TGI / NCI/ADR-RES ovarian / N#Cc1c(N)[nH]c(=S)c(C#N)c1-c1cccc(Cl)c1
## Output > 100 µM

---

Would you mind telling me the reported TGI of each entry?
- Test system: SW-620 colon
- experiment: NCI tumour cell line growth inhibition, 48 h

## Input For C=C1CCC2C(/C=C(\C)CCC1O)OC(=O)C2C (centres undefined) , what is its reported TGI?
## Output > 100 µM

## Input For C/C(=N\NC(=S)NC(C)C)c1nc2ncccc2[nH]1 , what is its reported TGI?
## Output > 100 µM

## Input For N#C/C(=C\NC(=S)Nc1ccc(S(=O)(=O)Nc2ccccn2)cc1)C(N)=O , what is its reported TGI?
## Output > 100 µM

## Input For O=C1CC(=O)N(c2ccccc2)N1/C(=C/c1ccccc1)c1ccccc1 , what is its reported TGI?
## Output 37.7 µM

## Input For O=C1CC(c2ccco2)C2(C(=O)NC(=O)NC2=O)C(c2ccco2)C1 (centres undefined) , what is its reported TGI?
## Output > 75 µM

## Input For CC(C)(C)C(=O)C(CC(=O)c1ccccc1)C(=O)C(C)(C)C , what is its reported TGI?
## Output > 100 µM

## Input For C[N+](C)(C)CC(=O)N/N=c1\cc(C(=O)Nc2ccc(N=O)cc2C#N)oc2cc(O)ccc12 , what is its reported TGI?
## Output > 100 µM

## Input For CC(=O)c1ccc(Nc2cc(-c3ccccc3)nc3c(O)cccc23)cc1 , what is its reported TGI?
## Output > 100 µM

## Input For CCOC(=O)C1=C(C)N(c2ccccc2)C2=C(C(=O)N(c3ccccc3)C2c2ccccc2)C1c1ccccc1 (centres undefined) , what is its reported TGI?
## Output > 100 µM

## Input For CC(=O)C(CN1CCCCC1)C(c1ccccc1)c1c(O)c2ccccc2oc1=O (centres undefined) , what is its reported TGI?
## Output > 100 µM

## Input For Nc1n[nH]c(=O)[nH]1 , what is its reported TGI?
## Output > 100 µM

## Input For COC(=O)C1OC(O[C@H]2CCC3(C)C(CCC4(C)C3CC=C3C5CC(C)(C)CCC5(C(=O)O)CC[C@]34C)C2(C)C)C(O)C(OC2OC(CO)C(O)C(O)C2O)C1O (some centres undefined) , what is its reported TGI?
## Output 16.7 µM

## Input For O=c1cc(-c2cccc(F)c2)[nH]c2cc3c(cc12)OCO3 , what is its reported TGI?
## Output > 100 µM

## Input For CC(C)=CCN1CC(C)C(=O)Nc2cc(Cl)ccc21 (centres undefined) , what is its reported TGI?
## Output 67.9 µM

---

- System: BT-549 breast
- experiment: NCI tumour cell line growth inhibition, 48 h
Would you mind telling me the reported TGI of each entry?
The response must be a number in µM with no trailing unit.

## Input For c1cc(-c2cnc(-c3ccc4c(c3)CCCO4)o2)ccn1 , what is its reported TGI?
## Output 29.1

## Input For O=C(CCN1CCN(c2cnc3ccccc3n2)CC1)c1csc2ccccc12 , what is its reported TGI?
## Output 30
